All figures here come from PubChem BioAssay (EPA / NIEHS).

Assay: BSK_4H_Eotaxin3: BioMAP Diversity Plus: 4H Assay for Eotaxin 3 Biomarker Activity (AID 2283000)
Conditions: primary human endothelial cells (HUVEC); actives raise or lower the signal
Procedure: BSK_4H is a cell-based, multiplexed-readout assay that uses umbilical vein endothelium, a human vascular primary cell, with measurements taken at 24 hours after chemical dosing in a 96-well plate.BSK_4H_Eotaxin3 is an assay component measured in the BSK_4H assay. It measures Eotaxin-3 antibody related to regulation of gene expression using ELISA technology.Data from the assay component BSK_4H_Eotaxin3 was analyzed into 1 assay endpoint. […]
Activity calls are given as the source filed them. How the source made its calls: active means hit-call score of the fitted dose curve at least 0.9, where 1 is the maximum; inactive means score below 0.9.
Response enum: yes (1) = active, no (0) = inactive

Observe how each entry below is paired with its result.
COMPOUND: CCOC(=O)CCCCCCCCC(=O)OCC
ANSWER_LABEL: no (0)

COMPOUND: C=C(C)C(=O)OCCC(F)(F)C(F)(F)C(F)(F)C(F)(F)C(F)(F)C(F)(F)C(F)(F)C(F)(F)F
ANSWER_LABEL: no (0)

COMPOUND: CC=CC(=O)C1=C(C)C=CCC1(C)C
ANSWER_LABEL: no (0)

COMPOUND: OCCN1CCOCC1
ANSWER_LABEL: no (0)

COMPOUND: Nc1ccc(N)c([N+](=O)[O-])c1
ANSWER_LABEL: no (0)

COMPOUND: CCCCOCCOCCO
ANSWER_LABEL: no (0)

[in] Dear colleague, could you share the recorded outcome for `CC(=O)OCC=C(C)CCC=C(C)CCC=C(C)C` when you have a moment?
[out] no (0)

[in] Dear colleague, could you share the recorded outcome for CC(C)Cc1ccc(C(C)C(=O)O)cc1 (centres undefined) when you have a moment?
[out] no (0)

[in] Dear colleague, could you share the recorded outcome for `CCC(=O)OCC=Cc1ccccc1` when you have a moment?
[out] no (0)

[in] Dear colleague, could you share the recorded outcome for `c1ccc(OCCOc2ccccc2)cc1` when you have a moment?
[out] no (0)

[in] Dear colleague, could you share the recorded outcome for `CCn1cc(C(=O)O)c(=O)c2ccc(C)nc21` when you have a moment?
[out] no (0)

[in] Dear colleague, could you share the recorded outcome for `c1ccc2c(c1)-c1ccc3ccc4cccc5cc-2c1c3c45` when you have a moment?
[out] yes (1)

[in] Dear colleague, could you share the recorded outcome for `c1ccc(Sc2ccccc2)cc1` when you have a moment?
[out] yes (1)

[in] Dear colleague, could you share the recorded outcome for `CCCO[Si](OCCC)(OCCC)OCCC` when you have a moment?
[out] no (0)

* * *

Assay: ATG_E_Box_CIS: Attagene CIS-FACTORIAL HepG2 Assay for human Enhancer Box (E-box) (AID 2282936)
Conditions: HepG2 E-box cis-reporter transcription, actives raise or lower the signal
Calls of active or inactive are those of the source. Rule for the calls: active = hit-call score of the fitted dose curve at least 0.9, where 1 is the maximum; inactive = score below 0.9.
Response enum: active, inactive

Observe how each entry below is paired with its result.
MOLECULE: CC(O)CN (centres undefined)
ANSWER_LABEL: inactive
--
MOLECULE: CC(CO)c1ccccc1 (centres undefined)
ANSWER_LABEL: inactive
--
MOLECULE: C=C1CC/C=C(\C)CC[C@@H]2[C@@H]1CC2(C)C
ANSWER_LABEL: active
--
MOLECULE: CCC(C)(CCCC(C)C)OC(C)=O (centres undefined)
ANSWER_LABEL: inactive

[in] Dear colleague, could you share the recorded outcome for `CCCCCCCCCCCCN1CCOCC1` when you have a moment?
[out] inactive

[in] Dear colleague, could you share the recorded outcome for `CCCCCCCCCCCCS` when you have a moment?
[out] inactive

[in] Dear colleague, could you share the recorded outcome for `NC(=O)c1cnccn1` when you have a moment?
[out] inactive

[in] Dear colleague, could you share the recorded outcome for `CCc1cccc(O)c1` when you have a moment?
[out] inactive

[in] Dear colleague, could you share the recorded outcome for `CCCCN(CCCC)CCCCCCN(CCCC)CCCC` when you have a moment?
[out] inactive

[in] Dear colleague, could you share the recorded outcome for CCCCCCC(O)CCOC(C)=O (centres undefined) when you have a moment?
[out] inactive

[in] Dear colleague, could you share the recorded outcome for CCCCCCC(C)O (centres undefined) when you have a moment?
[out] inactive

[in] Dear colleague, could you share the recorded outcome for `OCCCO` when you have a moment?
[out] inactive

[in] Dear colleague, could you share the recorded outcome for `CCCC1CCC(=O)CC1` when you have a moment?
[out] inactive

* * *

Read-out: Cytochrome P450 3A7 (Homo sapiens)
Test: LTEA_HepaRG_CYP3A7: Life Technologies and Expression Analysis (LTEA) Assay for CYP3A7 using HepaRG (AID 2283492)
Conditions: mRNA level, 48 h; actives raise or lower the signal
Calls of active or inactive are those of the source. How the source made its calls: active means hit-call score of the fitted dose curve at least 0.9, where 1 is the maximum; inactive means score below 0.9.
MEASURED_ENDPOINT: outcome

INPUT_SMILES: CCCCOCCOCCO
READING: inactive

INPUT_SMILES: C=C(C)C(N)=O
READING: inactive

INPUT_SMILES: O=C(c1ccc(OCCN2CCCCC2)cc1)c1c(-c2ccc(O)cc2)sc2cc(O)ccc12
READING: inactive

INPUT_SMILES: COC(=O)c1ccc(C(=O)OC)cc1
READING: inactive

[in] Please look at this compound and report its outcome: `CC/C(=C(\c1ccccc1)c1ccc(OCCN(C)C)cc1)c1ccccc1`
[out] inactive

* * *

Read-out: succinate dehydrogenase complex iron sulfur subunit B (SDHB), SDHB (gene 6390)
Assay: LTEA_HepaRG_SDHB: Life Technologies and Expression Analysis (LTEA) Assay for succinate dehydrogenase complex iron sulfur subunit B (SDHB) using HepaRG (AID 2283528)
Conditions: mRNA level, 48 h; actives raise or lower the signal
The source made the active and inactive calls. Rule for the calls: active = hit-call score of the fitted dose curve at least 0.9, where 1 is the maximum; inactive = score below 0.9.
Response enum: active, inactive

Observe how each entry below is paired with its result.
INPUT_SMILES: COC(=O)c1ccc(C(=O)OC)cc1
ANSWER_LABEL: inactive

INPUT_SMILES: CCCCOCCOCCO
ANSWER_LABEL: inactive

INPUT_SMILES: C[C@]12CC[C@@H]3c4ccc(O)cc4CC[C@H]3[C@@H]1CC[C@@H]2O
ANSWER_LABEL: inactive

INPUT_SMILES: O=C(c1ccc(OCCN2CCCCC2)cc1)c1c(-c2ccc(O)cc2)sc2cc(O)ccc12
ANSWER_LABEL: active

For the next question, use this compound.
[in] Dear colleague, could you share the recorded outcome for `C=C(C)C(N)=O` when you have a moment?
[out] inactive

* * *

Read-out: Plasminogen activator inhibitor-1 (PAI1), SERPINE1 (gene 5054)
Assay: BSK_MyoF_PAI1: BioMAP Diversity Plus: MyoF Assay for Plasminogen activator inhibitor-1 (PAI1) Biomarker Activity (AID 2284256)
Settings: primary human lung fibroblasts
Activity calls are given as the source filed them. The calls were made as follows: active = hit-call score of the fitted dose curve at least 0.9, where 1 is the maximum; inactive = score below 0.9.
MEASURED_ENDPOINT: AC50

Record excerpt, results attached:
COMPOUND: CCCCCCCCCCCCS
READING: 20 µM (active)
--
COMPOUND: CC(C)(C)c1cccc(O)c1
READING: inactive
--
COMPOUND: c1ccc2c(c1)-c1ccc3ccc4cccc5cc-2c1c3c45
READING: 1.24 µM (active)
--
COMPOUND: C=C(F)C(=O)OC(C(F)(F)F)C(F)(F)F
READING: inactive

Value sought for every listed compound: AC50.
1. CCC(=O)OCC=Cc1ccccc1
2. c1ccc(Sc2ccccc2)cc1
3. CC1(C)[C@H](C=C(Cl)Cl)[C@H]1C(=O)OCc1cccc(Oc2ccccc2)c1
4. OCC(F)(OC(F)(F)C(F)(OC(F)(F)C(F)(F)C(F)(F)F)C(F)(F)F)C(F)(F)F (stereo not drawn)
5. O=S(=O)(O)C(F)(F)C(F)(F)OC(F)(F)C(F)(F)F
6. C=C1CC/C=C(\C)CC[C@@H]2[C@@H]1CC2(C)C
7. CC(=O)OC(C)(C)C1CC=C(C)CC1 (stereo not drawn)

[out]
["inactive", "inactive", "inactive", "inactive", "inactive", "20 µM (active)", "inactive"]

Value sought for every listed compound: AC50.
1. CC(C)Cc1ccc(C(C)C(=O)O)cc1 (stereo not drawn)
2. CCCCCCCCCC(=O)OCC

[out]
1. inactive
2. inactive

* * *

Assay: Tanguay_ZF_120hpf_SWIM_legacy: (Legacy) Oregon State University Tanguay Lab 120 Hour Post-fertilization zebrafish Assay for Swim Bladder Malformation (AID 2283654);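 further: swim bladder malformation in each larva scored yes or no under brightfield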
Records with an inconclusive call do not appear. Calls of active or inactive are those of the source. Rule for the calls: active = hit-call score of the fitted dose curve at least 0.9, where 1 is the maximum; inconclusive = response in the unintended direction; inactive = score below 0.9.
Response enum: yes (1) = active, no (0) = inactive

INPUT_SMILES: C#C[C@]1(O)CC[C@H]2[C@@H]3CCc4cc(O)ccc4[C@H]3CC[C@@]21C
ANSWER_LABEL: no (0)

[in] Dear colleague, could you share the recorded outcome for `C=C(C)C(N)=O` when you have a moment?
[out] no (0)

[in] Dear colleague, could you share the recorded outcome for `COC(=O)c1ccc(C(=O)OC)cc1` when you have a moment?
[out] yes (1)

[in] Dear colleague, could you share the recorded outcome for `C[C@]12CC[C@@H]3c4ccc(O)cc4CC[C@H]3[C@@H]1CC[C@@H]2O` when you have a moment?
[out] no (0)
